test system: PANC-02-03 (Pancreatic Carcinoma); assay: combination Emax (second highest fraction inhibited in the dose matrix, 72 h); higher = more inhibition; extreme values may be limits of the assay
Entries and their combination Emax values follow.
Answer with a number only.

For orientation, consider the following solved cases.
[[record]]
compound = "COc1nnc2ccc(N3CCC(c4ccc(OCCN5CCN(C)C(=O)[C@H]5C)cc4)CC3)nn12 [AZD5153] + Cn1cnc2c(F)c(Nc3ccc(Br)cc3Cl)c(C(=O)NOCCO)cc21 [Selumetinib] (first compound max 1 µM, 7x7, partner max 10 µM)"
value_measured = 0.866

[[record]]
compound = "Cc1c2c(nn1C)CSCc1cc(n(C)n1)CSc1cc(c3ccccc3c1)OCCCc1c(C(=O)O)n(C)c3c-2c(Cl)ccc13 [AZD5991] + CN(C)CCCOc1ccc(-c2ccc3ncc4c(c3c2)n(C2CCOCC2)c(=O)n4C)cn1 [AZD0156] (first compound max 1 µM, 7x7, partner max 1 µM)"
value_measured = 0.203

[[record]]
compound = "CC1(C)CCC(CN2CCN(c3ccc(C(=O)NS(=O)(=O)c4ccc(NCC5CCOCC5)c([N+](=O)[O-])c4)c(Oc4cnc5[nH]ccc5c4)c3)CC2)=C(c2ccc(Cl)cc2)C1 [Venetoclax] + C[C@@H](Nc1cc(F)cc(F)c1)c1cc(C(=O)N(C)C)cc2c(=O)cc(N3CCOCC3)oc12 [AZD8186] (first compound max 1 µM, 7x7, partner max 3 µM)"
value_measured = 0.147


The value of combination Emax measured for the compound CN(C)CCCOc1ccc(-c2ccc3ncc4c(c3c2)n(C2CCOCC2)c(=O)n4C)cn1 [AZD0156] + O=C(c1cc(Cc2n[nH]c(=O)c3ccccc23)ccc1F)N1CCN(C(=O)C2CC2)CC1 [Olaparib] (first compound max 3 µM, partner max 3 µM) turned out to be 0.248

Reference for the values: the supplement of paper PMC11061612
